System: 377384-186-R-J1-PDC complex spheroid viability;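 also: luminescence signal used as a stand-in for viable cells; spheroids exposed to agents for 7 days before reading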
Experiment: Anticancer human tumor 377384-186-R-J1-PDC patient-derived pancreatic carcinoma cell line growth inhibition [CLK]; active = viability on the fitted dose curve at most 10% of control; inactive = the rest
Details: second compound 3.16 µM; first compound 0.0949 µM
Tick one outcome: active, inactive

Use these answered entries as a reference point.
- Compound: "CC(C)CC(NC(=O)C(Cc1ccccc1)NC(=O)c1cnccn1)B(O)O (stereo not drawn) + CNC(=O)c1ccc(Nc2nc(OC3CCCC3)c3c(-c4ccc5nc(C)oc5c4)c[nH]c3n2)c(OC)c1"
  Study target: "377384-186-R-J1-PDC complex spheroid viability"
  Label: "active"
- Compound: "C=CC(=O)Nc1cc(Nc2nccc(-c3cn(C)c4ccccc34)n2)c(OC)cc1N(C)CCN(C)C + CN1CCN(c2cc(C(=O)Nc3cc4cc(-c5cnn(C)c5)ccc4cn3)ccn2)CC1"
  Study target: "377384-186-R-J1-PDC complex spheroid viability"
  Label: "active"

Turning to the following compound.
Assay result, entry C=CC(=O)Nc1cc(Nc2nccc(-c3cn(C)c4ccccc34)n2)c(OC)cc1N(C)CCN(C)C + CNC(=O)c1ccc(Nc2nc(OC3CCCC3)c3c(-c4ccc5nc(C)oc5c4)c[nH]c3n2)c(OC)c1 — outcome?
inactive
